System: HEK-293T
method: Multiplex assay against HEK293T
Format: toxicity, cell-based
test.conditions: human, 24 h, 10 µM, compound concentration 10 uM, replicate 2
# note: boundary value 20% maps to not satisfied; Population Mitochondria Different-Phenotype (%) below it maps to satisfied

Answered examples (3):
- compound: "CCN1CCN(Cc2ccc(Nc3ncc(F)c(-c4cc(F)c5nc(C)n(C(C)C)c5c4)n3)nc2)CC1.CS(=O)(=O)O"
  class.label: "not satisfied"
- compound: "CCn1cc(-c2ccnc3[nH]c(-c4cccc(CN(C)C)c4)cc23)c(-c2ccc(NC(=O)N(C)C)cc2)n1 [GSK-1070916]"
  class.label: "not satisfied"
- compound: "O=C(Cc1ccc(-c2ccc(OCCN3CCOCC3)cc2)cn1)NCc1ccccc1 [TIRBANIBULIN]"
  class.label: "not satisfied"

Does this compound meet the criterion Population Mitochondria Different-Phenotype (%) < 20%? COc1ccc(-c2ccc3c(N4CCOCC4)nc(N4C[C@@H](C)O[C@@H](C)C4)nc3n2)cc1CO [Ku-0063794]
satisfied

Does this compound meet the criterion Population Mitochondria Different-Phenotype (%) < 20%? CCCS(=O)(=O)c1nc(NC2CC2)cc(-c2ccc3c(ccn3C3CC(C)(C)NC(C)(C)C3)c2)n1
not satisfied

Does this compound meet the criterion Population Mitochondria Different-Phenotype (%) < 20%? CCCn1c(=O)c2[nH]c(-c3cnn(Cc4cccc(C(F)(F)F)c4)c3)nc2n(CC)c1=O [GS 6201]
satisfied

Does this compound meet the criterion Population Mitochondria Different-Phenotype (%) < 20%? COc1cc(N2CCN(C)CC2)ccc1Nc1ncc2c(n1)N(C)c1ccccc1C(=O)N2C
not satisfied

Does this compound meet the criterion Population Mitochondria Different-Phenotype (%) < 20%? O=C1N/C(=N/c2ccccc2F)S/C1=C\c1ccc(C(=O)O)cc1
satisfied

----------
Answer each item with its documented Population Healthy Nuclei (%).
Test system: HEK-293T
method: Multiplex assay against HEK293T
Type: toxicity, cell-based
test.conditions: human, 12 h, 10 µM, compound concentration 10 uM, replicate 1
One number for each entry, in %.

Here is how some compounds turned out for Population Healthy Nuclei (%).
- compound: "O=C1NC(=O)C(c2cnc3ccccn23)=C1c1cn2c3c(cc(F)cc13)CN(C(=O)N1CCCCC1)CC2 [LY-2090314]"
  unit: "%"
  Population Healthy Nuclei (%): 18
- compound: "CNc1cc(Oc2cc(C(=O)Nc3cc(N4CCN(C)CC4)cc(C(F)(F)F)c3)ccc2C)ncn1"
  unit: "%"
  Population Healthy Nuclei (%): 3
- compound: "COc1cccc2cc(-c3nc([C@H]4CC[C@H](C(=O)O)CC4)n4ncnc(N)c34)[nH]c12 [OSI-027]"
  unit: "%"
  Population Healthy Nuclei (%): 40
- compound: "O=C(Nc1cccnn1)N1CCC(=Cc2cccc(Oc3ccc(C(F)(F)F)cn3)c2)CC1"
  unit: "%"
  Population Healthy Nuclei (%): 67
- compound: "CCCS(=O)(=O)Nc1ccc(F)c(C(=O)c2c[nH]c3ncc(Cl)cc23)c1F [PLX-4720]"
  unit: "%"
  Population Healthy Nuclei (%): 73
- compound: "COc1ccc(-c2ccc3c(N4CCOCC4)nc(N4C[C@@H](C)O[C@@H](C)C4)nc3n2)cc1CO [Ku-0063794]"
  unit: "%"
  Population Healthy Nuclei (%): 63

Please find the next compound below.
Just so you know, measured Population Healthy Nuclei (%) for Cl.O=c1c2cccn2c2ccccc2n1CCCN1CCC(c2ccc(Cl)cc2)CC1 came out at 34

----------
Test system: Fibroblast
method: Multiplex assay against human fibroblast
Assay type: toxicity, cell-based
test.conditions: 12 h, 10 µM, compound concentration 10 uM, replicate 2
reported.metric: Population Fragmented Nuclei (%)
Numbers only, in %.

- compound: "COc1ccc(-c2ccc3c(N4CCOCC4)nc(N4C[C@@H](C)O[C@@H](C)C4)nc3n2)cc1CO [Ku-0063794]"
  unit: "%"
  Population Fragmented Nuclei (%): 82

// batch mode: one Population Fragmented Nuclei (%) value per listed entry
1. CN(C)C(=O)C(CCN1CCC(O)(c2ccc(Cl)cc2)CC1)(c1ccccc1)c1ccccc1.Cl [LOPERAMIDE HYDROCHLORIDE]
2. CCn1c(=O)c(-c2ccc(-c3cncs3)cc2Cl)cc2cnc(Nc3ccc(N4CCN(C)CC4)cc3)nc21
3. CCOc1cc2ncc(C#N)c(Nc3ccc(OCc4ccccn4)c(Cl)c3)c2cc1NC(=O)/C=C/CN(C)C [NERATINIB]
4. CCCS(=O)(=O)Nc1ccc(F)c(C(=O)c2c[nH]c3ncc(Cl)cc23)c1F [PLX-4720]
5. C=CCn1c(=O)c2cnc(Nc3ccc(N4CCN(C)CC4)cc3)nc2n1-c1cccc(C(C)(C)O)n1 [ADAVOSERTIB]

8
8
35
65
55

// batch mode: one Population Fragmented Nuclei (%) value per listed entry
1. Cc1ccc2nc(NCCN)c3ncc(C)n3c2c1.O=C(O)C(F)(F)F.O=C(O)C(F)(F)F
2. O=C(Cc1ccc(-c2ccc(OCCN3CCOCC3)cc2)cn1)NCc1ccccc1 [TIRBANIBULIN]

57
13

----------
Answer each item with its documented Growth Rate.
Tested on: Fibroblast
method: Incucyte cell viability with human fibroblast; note: filed as whole numbers so only -1 and 0 and 1 occur
Format: toxicity, cell-based
test.conditions: 24 h, 10 µM, compound concentration 10 uM, replicate number 1, timepoint 24 hours
Answers are plain numbers.

Here is how some compounds turned out for Growth Rate.
- compound.smiles: "O=C(Cc1ccc(-c2ccc(OCCN3CCOCC3)cc2)cn1)NCc1ccccc1"
  assay.value: 0
- compound.smiles: "CO[C@H]1CC[C@H](CNc2ccc(S(=O)(=O)NC(=O)c3ccc(N4CCN(CC5=C(c6ccc(Cl)cc6)CC(C)(C)CC5)CC4)cc3Oc3cnc4[nH]ccc4c3)cc2[N+](=O)[O-])CC1"
  assay.value: 0
- compound.smiles: "CCCS(=O)(=O)Nc1ccc(F)c(C(=O)c2c[nH]c3ncc(Cl)cc23)c1F"
  assay.value: 0
- compound.smiles: "O=C(NOCC1CC1)c1ccc(F)c(F)c1Nc1ccc(I)cc1Cl"
  assay.value: 1
- compound.smiles: "O=C1O[C@]2(CC[C@H](C(=O)Nc3ccn(-c4ccccc4F)n3)CC2)c2cnccc21"
  assay.value: 0
- compound.smiles: "COc1ccc(-c2ccc3c(N4CCOCC4)nc(N4C[C@@H](C)O[C@@H](C)C4)nc3n2)cc1CO"
  assay.value: 0
- compound.smiles: "Cc1nnc2c3ccccc3c(N[C@@H](C)[C@H](c3ccccc3)N(C)C)nn12"
  assay.value: 1
- compound.smiles: "C[C@@H]1CN(c2cc(-c3n[nH]c4ccc(OC5(C)CC5)cc34)ncn2)C[C@H](C)O1"
  assay.value: 0

// batch mode: one Growth Rate value per listed entry
1. COc1cc(N2CCN(C)CC2)ccc1Nc1ncc2c(n1)N(C)c1ccccc1C(=O)N2C
2. Cl.O=c1c2cccn2c2ccccc2n1CCCN1CCC(c2ccc(Cl)cc2)CC1

1: 1; 2: 0

----------
Tested on: HEK-293T
method: Multiplex assay against HEK293T
Format: toxicity, cell-based
test.conditions: human, 24 h, 1 µM, compound concentration 1 uM, replicate 2
reported.metric: Population Apoptotic (%)
One number for each entry, in %.

- compound: "CN([C@@H](Cc1ccc(OS(=O)(=O)c2cccc3cnccc23)cc1)C(=O)N1CCN(c2ccccc2)CC1)S(=O)(=O)c1cccc2cnccc12"
  assayed.target: "HEK-293T"
  unit: "%"
  Population Apoptotic (%): 11
- compound: "COc1ccc(-c2ccc3c(N4CCOCC4)nc(N4C[C@@H](C)O[C@@H](C)C4)nc3n2)cc1CO [Ku-0063794]"
  assayed.target: "HEK-293T"
  unit: "%"
  Population Apoptotic (%): 12
- compound: "CCn1cc(-c2ccnc3[nH]c(-c4cccc(CN(C)C)c4)cc23)c(-c2ccc(NC(=O)N(C)C)cc2)n1 [GSK-1070916]"
  assayed.target: "HEK-293T"
  unit: "%"
  Population Apoptotic (%): 3

// batch mode: one Population Apoptotic (%) value per listed entry
1. Cl.O=c1c2cccn2c2ccccc2n1CCCN1CCC(c2ccc(Cl)cc2)CC1
2. S=C(NCCCc1c[nH]cn1)NCCCN(Cc1ccc(Cl)c(Cl)c1)c1ccc(Br)cn1
3. CCNc1cc(N[C@H]2CC[C@H](O)CC2)nc(Nc2ccc3c(ccn3Cc3ccccc3)c2)n1

38
20
9

// batch mode: one Population Apoptotic (%) value per listed entry
1. O=C1NC(=O)C(c2cnc3ccccn23)=C1c1cn2c3c(cc(F)cc13)CN(C(=O)N1CCCCC1)CC2 [LY-2090314]
2. O=C1N/C(=N/c2ccccc2F)S/C1=C\c1ccc(C(=O)O)cc1

[29, 8]

----------
Test system: U2OS
method: Multiplex assay against U2OS
Type: toxicity, cell-based
test.conditions: human, 48 h, 1 µM, compound concentration 1 uM, replicate 2
Answer each item with its documented Population Healthy Nuclei (%).
Answers are plain numbers, in %.

Here is how some compounds turned out for Population Healthy Nuclei (%).
- compound: "CCCS(=O)(=O)c1nc(NC2CC2)cc(-c2ccc3c(ccn3C3CC(C)(C)NC(C)(C)C3)c2)n1"
  assay.value: 68
- compound: "Cl.Oc1ccc2c3c1O[C@H]1c4[nH]c5c(c4C[C@@]4(O)[C@@H](C2)N(CC2CC2)CC[C@]314)C[C@@]1(O)[C@H]2Cc3ccc(O)c4c3[C@@]1(CCN2CC1CC1)[C@H]5O4"
  assay.value: 87
- compound: "CN(C)C(=O)C(CCN1CCC(O)(c2ccc(Cl)cc2)CC1)(c1ccccc1)c1ccccc1.Cl [LOPERAMIDE HYDROCHLORIDE]"
  assay.value: 68
- compound: "O=C(Nc1ccc(Cl)cc1)Nc1cccc(-c2cccc(N3CCCC3)n2)c1"
  assay.value: 83
- compound: "Cc1cn(-c2cc(NC(=O)c3ccc(C)c(Nc4nccc(-c5cccnc5)n4)c3)cc(C(F)(F)F)c2)cn1"
  assay.value: 92

// batch mode: one Population Healthy Nuclei (%) value per listed entry
1. O=C1NC(=O)C(c2cnc3ccccn23)=C1c1cn2c3c(cc(F)cc13)CN(C(=O)N1CCCCC1)CC2
2. O=C(Nc1ccc(-n2nc(-c3cccnc3)cc2C(F)(F)F)cn1)c1ccc(-c2ccccc2)c(F)c1

1. 79
2. 91

Just so you know, measured Population Healthy Nuclei (%) for CCn1c(=O)c(-c2ccc(-c3cncs3)cc2Cl)cc2cnc(Nc3ccc(N4CCN(C)CC4)cc3)nc21 came out at 79
